Measured IC50 accompanies every entry in the list below.
Target: Sodium-dependent serotonin transporter (Rattus norvegicus)
Sequence (P31652 whole entry): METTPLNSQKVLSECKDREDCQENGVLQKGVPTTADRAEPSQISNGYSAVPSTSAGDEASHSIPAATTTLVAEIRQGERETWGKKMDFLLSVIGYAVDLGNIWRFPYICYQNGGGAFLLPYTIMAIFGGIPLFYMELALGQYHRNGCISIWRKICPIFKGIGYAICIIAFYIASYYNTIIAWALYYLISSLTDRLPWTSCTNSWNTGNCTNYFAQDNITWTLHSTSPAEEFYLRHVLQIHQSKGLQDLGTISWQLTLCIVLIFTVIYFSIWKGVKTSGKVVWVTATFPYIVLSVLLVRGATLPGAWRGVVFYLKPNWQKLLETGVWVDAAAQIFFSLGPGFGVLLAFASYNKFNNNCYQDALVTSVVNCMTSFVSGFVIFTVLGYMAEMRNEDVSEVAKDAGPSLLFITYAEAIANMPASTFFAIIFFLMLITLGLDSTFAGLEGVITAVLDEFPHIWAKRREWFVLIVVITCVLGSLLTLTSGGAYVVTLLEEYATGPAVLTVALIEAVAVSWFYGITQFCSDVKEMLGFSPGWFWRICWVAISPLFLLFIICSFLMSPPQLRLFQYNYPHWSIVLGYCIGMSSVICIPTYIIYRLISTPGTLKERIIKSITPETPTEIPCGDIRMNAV
Readout label: IC50

[[record]]
compound = "OC1C2CCC1CN(Cc1ccccc1)C2 (stereo not drawn)"
reported_value = "> 10 µM"

[[record]]
compound = "c1ccc(CN2CC3CCC(C2)C3OC(c2ccccc2)c2ccccc2)cc1 (stereo in doubt; 17b)"
reported_value = "> 10 µM"

[[record]]
compound = "BrC1C2CCC1CN(Cc1ccccc1)C2 (stereo not drawn)"
reported_value = "> 10 µM"


----------
Molecular target: Sodium-dependent dopamine transporter (Rattus norvegicus, UniProt P23977)
Sequence (P23977 whole entry): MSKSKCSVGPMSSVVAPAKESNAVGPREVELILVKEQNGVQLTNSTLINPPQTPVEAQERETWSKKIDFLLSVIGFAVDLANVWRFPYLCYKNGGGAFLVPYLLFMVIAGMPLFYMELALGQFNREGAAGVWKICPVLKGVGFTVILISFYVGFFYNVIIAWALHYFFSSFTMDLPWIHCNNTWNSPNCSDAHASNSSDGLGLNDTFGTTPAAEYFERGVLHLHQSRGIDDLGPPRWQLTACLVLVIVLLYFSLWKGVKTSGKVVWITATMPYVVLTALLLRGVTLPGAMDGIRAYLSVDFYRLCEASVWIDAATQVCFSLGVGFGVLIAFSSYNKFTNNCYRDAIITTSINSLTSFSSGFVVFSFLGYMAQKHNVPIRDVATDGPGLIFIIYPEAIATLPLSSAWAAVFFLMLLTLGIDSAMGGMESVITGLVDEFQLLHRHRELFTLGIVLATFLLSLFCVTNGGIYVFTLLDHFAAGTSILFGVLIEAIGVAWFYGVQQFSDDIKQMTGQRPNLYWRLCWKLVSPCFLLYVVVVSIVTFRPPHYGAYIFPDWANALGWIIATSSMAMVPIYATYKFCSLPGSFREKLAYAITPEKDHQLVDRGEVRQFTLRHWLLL
Assay: Inhibition of [3H]WIN-35428 binding to the cocaine binding site on the dopamine transporter (DAT) in synaptosomal membrane preparations from rat striatal tissue.
Assay type: cell membranes, Striatum
pIC50: −log10 of the molar value.
Measured pIC50 accompanies every entry in the list below.
Readout label: pIC50

[[record]]
compound = "OC1(c2ccccc2)C2CCC1CN(Cc1ccccc1)C2 (stereo unspecified)"
reported_value = 4.76

[[record]]
compound = "OC1(c2ccc(Cl)cc2)C2CCC1CN(Cc1ccccc1)C2 (stereo unspecified)"
reported_value = 5.82

[[record]]
compound = "c1ccc(CN2CC3CCC(C2)C3c2ccccc2)cc1 (stereo in doubt; 14)"
reported_value = 6.11

[[record]]
compound = "c1ccc(C2C3CCC2CNC3)cc1 (stereo unspecified)"
reported_value = 6.59

[[record]]
compound = "c1ccc(CN2CC3CCC(C2)C3c2ccccc2)cc1 (stereo in doubt; 8a)"
reported_value = 6.63

[[record]]
compound = "OC1C2CCC1CN(Cc1ccccc1)C2 (stereo unspecified)"
reported_value = 4.66

